target: human Top IB (hTopIB) (Homo sapiens, UniProt P11387); construct: made in house; assay: Relaxation of supercoiled pSK DNA by recombinant hTopIB; type: biochemical; details: Table 3
Sequence (P11387 whole entry): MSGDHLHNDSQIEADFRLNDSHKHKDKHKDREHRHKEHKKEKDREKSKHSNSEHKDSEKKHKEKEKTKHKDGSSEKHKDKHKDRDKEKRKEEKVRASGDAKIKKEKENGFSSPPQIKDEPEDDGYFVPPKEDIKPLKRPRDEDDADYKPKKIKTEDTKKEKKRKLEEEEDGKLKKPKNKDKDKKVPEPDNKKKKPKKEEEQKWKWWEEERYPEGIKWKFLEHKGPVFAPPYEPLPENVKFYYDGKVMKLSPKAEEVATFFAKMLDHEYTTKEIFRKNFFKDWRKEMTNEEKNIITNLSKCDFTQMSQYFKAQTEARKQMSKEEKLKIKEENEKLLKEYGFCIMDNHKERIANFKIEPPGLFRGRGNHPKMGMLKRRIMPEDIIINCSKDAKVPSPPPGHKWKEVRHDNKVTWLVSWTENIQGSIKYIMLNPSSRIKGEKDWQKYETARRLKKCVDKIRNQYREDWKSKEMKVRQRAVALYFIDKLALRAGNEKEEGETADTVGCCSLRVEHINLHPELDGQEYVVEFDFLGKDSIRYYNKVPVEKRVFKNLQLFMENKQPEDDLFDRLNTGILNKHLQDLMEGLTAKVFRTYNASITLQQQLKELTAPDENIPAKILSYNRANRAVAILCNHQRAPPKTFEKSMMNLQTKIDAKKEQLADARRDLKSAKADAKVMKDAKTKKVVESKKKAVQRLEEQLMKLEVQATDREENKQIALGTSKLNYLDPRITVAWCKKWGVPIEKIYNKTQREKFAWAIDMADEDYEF
assay.endpoint: hTopIB inhibition

COc1cnc2c(c1)C(=O)c1c-2n(CCCN2CCOCC2)c(=O)c2ccc(OC)cc12 :: +++ (inhibition at 1 μM)
O=C1c2ccccc2-c2c1c1ccc([N+](=O)[O-])cc1c(=O)n2CCCN1CCOCC1 :: +++ (inhibition at 1 μM)
COc1ccc2c(c1)C(=O)c1c-2n(CCCN2CCOCC2)c(=O)c2cc([N+](=O)[O-])ccc12 :: +++ (inhibition at 1 μM)

// data source = paper PMC6796659
